Values were extracted from patent US10004732B2.

- TARGET_OR_SYSTEM: PI 4-kinase beta (Homo sapiens)
- Sequence (Q9UBF8 whole entry): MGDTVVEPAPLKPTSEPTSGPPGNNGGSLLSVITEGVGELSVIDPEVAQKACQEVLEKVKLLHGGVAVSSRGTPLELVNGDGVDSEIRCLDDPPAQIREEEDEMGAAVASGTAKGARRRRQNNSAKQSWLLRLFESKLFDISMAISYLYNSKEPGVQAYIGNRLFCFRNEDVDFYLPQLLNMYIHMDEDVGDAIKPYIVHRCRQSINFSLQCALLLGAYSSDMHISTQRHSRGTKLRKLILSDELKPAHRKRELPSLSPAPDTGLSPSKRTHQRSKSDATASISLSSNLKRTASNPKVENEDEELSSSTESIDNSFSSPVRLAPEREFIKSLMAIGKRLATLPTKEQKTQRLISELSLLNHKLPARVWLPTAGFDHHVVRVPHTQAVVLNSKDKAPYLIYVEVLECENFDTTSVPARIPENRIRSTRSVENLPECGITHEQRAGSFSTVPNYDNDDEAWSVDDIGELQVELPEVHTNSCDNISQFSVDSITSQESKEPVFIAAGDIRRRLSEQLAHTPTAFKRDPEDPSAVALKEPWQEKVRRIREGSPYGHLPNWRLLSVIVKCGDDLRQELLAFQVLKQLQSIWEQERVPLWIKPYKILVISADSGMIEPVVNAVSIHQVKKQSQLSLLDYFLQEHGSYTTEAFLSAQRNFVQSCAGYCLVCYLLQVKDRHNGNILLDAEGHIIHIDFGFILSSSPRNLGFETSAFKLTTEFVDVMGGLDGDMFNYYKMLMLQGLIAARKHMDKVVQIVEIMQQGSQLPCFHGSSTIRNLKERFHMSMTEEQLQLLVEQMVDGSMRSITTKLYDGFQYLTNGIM
- METHOD_DESCRIPTION: Kinase Glo Luminescent Kinase Assay (Kglo), assay D
- Type: biochemical
- STUDY_CONDITIONS: read-out: Assay D PI4Kβ IC50
pIC50: −log10 of the molar value.
QUANTITY_NAME: pIC50

>>> print(df.to_string())
                                   molecule  reported_relation  reported_result
0  Cc1ncc(-c2nc(-c3cc(S(=O)(=O)N[C@H]4C[C@H](O)C4)ccc3C)cnc2N)s1 [Example 43b]                  =             5.32
1  Cc1ccc(S(=O)(=O)NCC2(CO)CCOCC2)cc1-c1cnc(N)c(-n2cncn2)n1                  <             5.00
2  Cc1ccc(S(=O)(=O)NCCC(C)(C)O)cc1-c1cnc(N)c(-c2ccncc2)n1                  =             5.24
3  Cc1ccc(S(=O)(=O)NCCC(C)(C)O)cc1-c1cnc(N)c(-c2ccoc2)n1                  =             5.31
4  Cc1cc(-c2nc(-c3cc(S(=O)(=O)NC4CCNC(=O)C4)ccc3C)cnc2N)ccn1 (centres unmarked)                  =             5.14
5  Cc1ccc(S(=O)(=O)N2CCC(F)CC2)cc1-c1cnc(N)c(-n2cncn2)n1                  =             5.52
6  Cc1ccc(S(=O)(=O)NC[C@H]2COCCN2)cc1-c1cnc(N)c(-c2cn(C)nc2C)n1                  <             5.00
7  Cc1ccc(S(=O)(=O)NCCC(C)(C)O)cc1-c1cnc(N)c(-c2cnn(Cc3cccnc3)c2)n1                  =             5.20
